- protocol: Plasma pharmacokinetics after single intravenous injection in rats
- Format: in vivo
- setup-conditions: male, rat, rats ♂, intravenous 2 mg/kg, Mean ± SD, read-out: Vz
readout-type: Vd (L/kg)
Report as a plain number; the unit L/kg is understood.

Value of Vd reported for the compound CC(C)(O)[C@@H]1CC[C@](C)([C@H]2[C@@H](O)C[C@@]3(C)[C@@H]4C[C@H](O)[C@H]5C(C)(C)C(F)(F)CC[C@@]56C[C@@]46CC[C@]23C)O1 [Compound 2] is 2.39

----------
- protocol: Plasma pharmacokinetics after single intravenous injection in rats
- Assay type: in vivo
- setup-conditions: both sexes, rat, all rats (♂ and ♀), intravenous 2 mg/kg, Mean ± SD, read-out: C0.05
readout-type: concentration at 0.05 h (ng/mL)
Report as a plain number; the unit ng/mL is understood.

Value of concentration at 0.05 h reported for the molecule CC(C)(O)[C@@H]1CC[C@](C)([C@H]2[C@@H](O)C[C@@]3(C)[C@@H]4C[C@H](O)[C@H]5C(C)(C)C(F)(F)CC[C@@]56C[C@@]46CC[C@]23C)O1 [Compound 2] is 1460

----------
- protocol: Solubility test in water and FaSSIF
- Assay type: physicochemical
- setup-conditions: thermodynamic from solid; Water, 37° C., up to 24 hours; read-out: Solubility
readout-type: Solubility (µg/mL)
Report as a plain number; the unit µg/mL is understood.

chemical-structure	readout-type	display-unit	observed
CC(C)(O)[C@@H]1CC[C@@](C)([C@H]2[C@@H](O)C[C@@]3(C)[C@@H]4C[C@H](OC(=O)COCCOCCOCCO)[C@H]5C(C)(C)C(F)(F)CC[C@@]56C[C@@]46CC[C@]23C)O1	Solubility	µg/mL	850
CC(C)(O)[C@@H]1CC[C@@](C)([C@H]2[C@@H](O)C[C@@]3(C)[C@@H]4C[C@H](OC(=O)COCCOCCOCCOCCOCCO)[C@H]5C(C)(C)C(F)(F)CC[C@@]56C[C@@]46CC[C@]23C)O1	Solubility	µg/mL	1230

Now look at this one.
Value of Solubility reported for the molecule `CC(C)(O)[C@@H]1CC[C@@](C)([C@H]2[C@@H](O)C[C@@]3(C)[C@@H]4C[C@H](OC(=O)[C@@H](N)CC(=O)O)[C@H]5C(C)(C)C(F)(F)CC[C@@]56C[C@@]46CC[C@]23C)O1` is 1500

----------
- protocol: Plasma pharmacokinetics after single intravenous injection in rats
- Format: in vivo
- setup-conditions: female, rat, rats ♀, intravenous 2 mg/kg, Mean ± SD
readout-type: clearance (mL/min/kg)
Report as a plain number; the unit mL/min/kg is understood.

Value of clearance reported for the molecule `CC(C)(O)[C@@H]1CC[C@](C)([C@H]2[C@@H](O)C[C@@]3(C)[C@@H]4C[C@H](O)[C@H]5C(C)(C)C(F)(F)CC[C@@]56C[C@@]46CC[C@]23C)O1` is 14.9

----------
- protocol: Plasma pharmacokinetics after single intravenous injection in rats
- Type: in vivo
- setup-conditions: male, rat, rats ♂, intravenous 2 mg/kg, Mean ± SD
readout-type: half-life
Answer format reminder: number followed by unit.

Value of half-life reported for the molecule CC(C)(O)[C@@H]1CC[C@](C)([C@H]2[C@@H](O)C[C@@]3(C)[C@@H]4C[C@H](O)[C@H]5C(C)(C)C(F)(F)CC[C@@]56C[C@@]46CC[C@]23C)O1 [Compound 2] is 54 min

----------
- protocol: Plasma pharmacokinetics after single intravenous injection in rats
- Assay type: in vivo
- setup-conditions: both sexes, rat, all rats (♂ and ♀), intravenous 2 mg/kg, Mean ± SD, read-out: Vz
readout-type: Vd (L/kg)
Report as a plain number; the unit L/kg is understood.

Value of Vd reported for the compound `CC(C)(O)[C@@H]1CC[C@](C)([C@H]2[C@@H](O)C[C@@]3(C)[C@@H]4C[C@H](O)[C@H]5C(C)(C)C(F)(F)CC[C@@]56C[C@@]46CC[C@]23C)O1` is 2.13

----------
- protocol: Plasma pharmacokinetics after single intragastric administration in rats
- Assay type: in vivo, SD rat
- setup-conditions: female, SD, rat, plasma, po; rats ♀, single gavage 10 mg/kg vs intravenous 2 mg/kg; read-out: F (absolute bioavailability)
readout-type: bioavailability (%)
Report as a plain number; the unit % is understood.

Value of bioavailability reported for the compound `CC(C)(O)[C@@H]1CC[C@](C)([C@H]2[C@@H](O)C[C@@]3(C)[C@@H]4C[C@H](O)[C@H]5C(C)(C)C(F)(F)CC[C@@]56C[C@@]46CC[C@]23C)O1` is 28.4

----------
- protocol: Solubility test in water and FaSSIF
- Assay type: physicochemical
- setup-conditions: Water, 37° C., up to 24 hours
Here, each record is paired with measured Solubility data.
Answer format reminder: number followed by unit.

# example entries with known answers
compound	Solubility
CC(N)C(=O)N(C)CC(=O)OC1CC2C3(C)CC(O)C(C4(C)CCC(C(C)(C)O)O4)C3(C)CCC23CC32CCC(F)(F)C(C)(C)C12.Cl (stereo not drawn)	950 µg/mL
Br.CC(C)(O)C1CCC(C)(C2C(O)CC3(C)C4CC(OC(=O)COCCOCCOCCOCCOCCN)C5C(C)(C)C(F)(F)CCC56CC46CCC23C)O1 (stereo not drawn)	2280 µg/mL

Now look at this one.
Value of Solubility reported for the compound `C[C@@H](N)C(=O)N[C@H](C)C(=O)O[C@H]1C[C@@H]2[C@]3(CC[C@]4(C)[C@@H]([C@]5(C)CC[C@@H](C(C)(C)O)O5)[C@@H](O)C[C@@]24C)C[C@@]32CCC(F)(F)C(C)(C)[C@H]12.I` is 1350 µg/mL
